# Kd listing for each entry below
# experimental-system: T1, recombinant human HER2 extracellular domain protein (human, UniProt P04626 23-652)
# T1 construct: range 23-652; Range is printed for the immunogen/panning protein; also called ErbB2; recombinant HER2 protein
# measurement-notes: BLI, Protein A capture
// return numeric value only (unit: nM, not printed)

Hu2117HK-Mu50 (Fc fusion, scFv-hIgG1 Fc; not shown: human IgG1 Fc) scFv: EVQLVESGGGLVQPGGSLRLSCAASGFTYSSYGMSWVRQAPGKGLEWVASISGGGSYTKYPDSVKGRFTISRDNSKNTLYLQMNSLRAEDTAVYYCARDYVGFFDVWGQGTLVTVSSGGGGSGGGGSGGGGSDIQMTQSPSSLSASVGDRVTITCRSSQSLVHSNGNTYLHWYQQKPGKAPKLLIYKVSNRFSGVPSRFSGSGSGTDFTLTISSLQPEDFATYFCSQSTHVPYTFGQGTKVEIK	16
Hu2117HK-Mu48 (Fc fusion, scFv-hIgG1 Fc; not shown: human IgG1 Fc) scFv: EVQLVESGGGLVQPGGSLRLSCAASGFTYSSYGMSWVRQAPGKGLEWVASISGGGSYTKYPDSVKGRFTISRDNSKNTLYLQMNSLRAEDTAVYYCARDYRGFFDVWGQGTLVTVSSGGGGSGGGGSGGGGSDIQMTQSPSSLSASVGDRVTITCRSSQSLVHSNGNTYLHWYQQKPGKAPKLLIYKVSNRFSGVPSRFSGSGSGTDFTLTISSLQPEDFATYFCSQSTHVPYTFGQGTKVEIK	12.1

Now take the following binder into account.
Inquiry: // returns reported Kd for input Hu2117HK-Mu10 (Fc fusion, scFv-hIgG1 Fc; not shown: human IgG1 Fc) scFv: EVQLVESGGGLVQPGGSLRLSCAASGFTYSSYGMSWVRQAPGKGLEWVASISGGGSYTKYVDSVKGRFTISRDNSKNTLYLQMNSLRAEDTAVYYCARDYAGFFDVWGQGTLVTVSSGGGGSGGGGSGGGGSDIQMTQSPSSLSASVGDRVTITCRSSQSLVHSNGNTYLHWYQQKPGKAPKLLIYKVSNRFSGVPSRFSGSGSGTDFTLTISSLQPEDFATYFCSQSTHVPYTFGQGTKVEIK
Reply text: 7.05
